target: NADPH oxidase 4 (Homo sapiens); assay: NOX4-dependent H2O2 signal modulators, primary screen, NOX inhibitor project, cell-based, HEK293-NOX4, tetracycline-induced, Amplex Red fluorescence (AID 1160); details: 45 min, higher = more signal, called active from +8 up or from −8 down
Please go through the items and note down their z-score.
One number for each entry.

Worked cases, answers included:
C=C[C@H](OC)[C@@H](OC(=O)Nc1ccc(SC)cc1)c1ccc(OC)c(O)c1 = -1.35
O=C1c2ccccc2[C@@]2(Cc3ccccc3N(CC(F)(F)F)C2=O)[C@H](c2ccc(CO)cc2)N1C1CCCCC1 = -0.501

Items follow; give z-score for each.
1. C[C@H]1C2[C@H](Cc3ccccc3)NC(=O)[C@]23C(=O)N[C@H](Cc2ccccc2)C(=O)N[C@@H](Cc2ccccc2)C(=O)NC/C=C\C/C=C/C3[C@@H]2O[C@]12C (some centres not stated)
2. CO[C@H]1COC(=O)CC=C[C@H](C)COC(=O)[C@@H](OCc2ccccc2)C=C[C@@H]1C
3. COC(=O)Cn1c(C(=O)N2CCCC2)cc2c1C[C@H]1CN(C(=O)c3ccccc3)[C@@](Cc3ccccc3)(C(=O)OC)[C@@H]21

A.
[1.1, -0.234, 0.217]

Please go through the list and note z-score for each molecule.
1. C=CCC(OC(C)=O)[C@@H]1[C@@H](N(Cc2ccc(-c3ccccc3)cc2)C(=O)c2ccc(-c3ccccc3)cc2)c2cc(OCCCO)ccc2N1C(=O)Cc1ccc(OC)cc1 (some centres not stated)
2. CO[C@H]1O[C@H](CO)[C@@H](OC(=O)Nc2ccc(Oc3ccccc3)cc2)[C@H](OC(=O)Nc2ccccc2-c2ccccc2)[C@H]1OC(=O)Nc1ccccc1-c1ccccc1

A.
[1.2, -0.7]
